Reference for the values: patent US20200239555A1

- EXPERIMENTAL_TARGET: T1, biotinylated native human ApoC3 (human, UniProt P02656 21-99, biotinylated (site not stated))
- T1 construct: also called biotinylated human ApoC3
- T1 sequence (P02656 21-99): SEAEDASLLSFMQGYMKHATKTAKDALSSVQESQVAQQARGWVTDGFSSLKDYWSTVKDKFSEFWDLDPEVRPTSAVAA
- TEST_METHOD_NOTES: SPR, IgG1 over biotinylated ApoC3 on SA chip, pH 5.5
- Protocol: Biotinylated native human ApoC3 was captured on a streptavidin coated SPR chip (GE Healthcare, cat. nr. BR100032) at pH 7.4, in accordance with the method provided by Biacore, by injection of 20 μl 10 μg/ml biotinylated native human ApoC3 reaching the surface density of approximately 500 RU. […] The resulting sensorgrams were analyzed using the BIAevaluation 4.1 software using Langmuir 1:1 binding model to derive binding kinetics. […]
QUANTITY_MEASURED: pKd
// field semantics: pKd = negative decimal log of concentration (mol/L)

# count of solved cases: 4
[[record]]
binder = "mAb17 (antibody, IgG1, V domains shown, Produced as full length IgG1 (kappa) in ExpiCHO-S cells; also called humanized anti-ApoC3 antibody mAb17) VH: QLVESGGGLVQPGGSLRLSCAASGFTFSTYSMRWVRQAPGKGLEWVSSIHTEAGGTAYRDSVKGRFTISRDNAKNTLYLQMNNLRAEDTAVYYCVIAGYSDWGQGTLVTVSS VL: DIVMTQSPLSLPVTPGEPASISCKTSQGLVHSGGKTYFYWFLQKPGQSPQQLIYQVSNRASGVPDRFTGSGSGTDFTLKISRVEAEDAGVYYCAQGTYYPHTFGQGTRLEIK"
quantity_measured = "pKd"
assay_value = 9.47

[[record]]
binder = "mAb8 (antibody, IgG1, V domains shown, Produced as full length IgG1 (kappa) in ExpiCHO-S cells; also called humanized anti-ApoC3 antibody mAb8) VH: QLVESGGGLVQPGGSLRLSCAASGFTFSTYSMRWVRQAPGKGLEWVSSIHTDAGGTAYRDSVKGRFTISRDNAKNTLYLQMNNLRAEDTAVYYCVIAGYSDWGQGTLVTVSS VL: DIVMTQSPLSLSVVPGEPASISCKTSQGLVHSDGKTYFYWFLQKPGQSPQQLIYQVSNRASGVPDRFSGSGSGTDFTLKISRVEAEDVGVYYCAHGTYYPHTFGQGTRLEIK"
quantity_measured = "pKd"
assay_value = 9.12

[[record]]
binder = "mAb12 (antibody, IgG1, V domains shown, Produced as full length IgG1 (kappa) in ExpiCHO-S cells; also called humanized anti-ApoC3 antibody mAb12) VH: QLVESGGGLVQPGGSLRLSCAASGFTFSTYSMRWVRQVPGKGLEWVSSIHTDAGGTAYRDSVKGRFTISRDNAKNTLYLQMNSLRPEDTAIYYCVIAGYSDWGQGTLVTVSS VL: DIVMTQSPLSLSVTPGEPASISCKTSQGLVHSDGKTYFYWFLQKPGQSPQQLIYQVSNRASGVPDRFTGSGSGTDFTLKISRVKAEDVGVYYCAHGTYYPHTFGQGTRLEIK"
quantity_measured = "pKd"
assay_value = 9.85

[[record]]
binder = "mAb15 (antibody, IgG1, V domains shown, Produced as full length IgG1 (kappa) in ExpiCHO-S cells; also called humanized anti-ApoC3 antibody mAb15) VH: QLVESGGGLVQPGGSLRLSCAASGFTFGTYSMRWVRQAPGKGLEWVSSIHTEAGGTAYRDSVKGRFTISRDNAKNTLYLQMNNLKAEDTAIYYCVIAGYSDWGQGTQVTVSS VL: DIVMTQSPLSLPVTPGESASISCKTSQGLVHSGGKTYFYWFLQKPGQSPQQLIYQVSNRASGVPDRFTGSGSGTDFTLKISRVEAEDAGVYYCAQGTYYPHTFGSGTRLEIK"
quantity_measured = "pKd"
assay_value = 9.46


Kindly review the next binder as well.
Quick one: pKd of mAb5 (antibody, IgG1, V domains shown, Produced as full length IgG1 (kappa) in ExpiCHO-S cells; also called humanized anti-ApoC3 antibody mAb5) VH: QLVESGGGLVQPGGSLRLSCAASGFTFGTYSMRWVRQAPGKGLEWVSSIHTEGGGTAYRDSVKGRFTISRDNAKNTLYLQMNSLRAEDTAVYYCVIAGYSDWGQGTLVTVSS VL: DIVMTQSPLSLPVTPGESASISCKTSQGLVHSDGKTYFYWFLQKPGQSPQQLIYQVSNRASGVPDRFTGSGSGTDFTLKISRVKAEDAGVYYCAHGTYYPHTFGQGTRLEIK ?
9.46
